- assay-system: pooled human IgG (human IgG1, 2, 3 and 4)
observed-property: Enzyme Activity Endpoint Assay (purified): IgG (ng/µL)

- PRT-594 (protein) MANQEIRYSEETPSTITSVWTKGVTPPTDFIQNEDVLHAPYIANQGWYDITKTFNGKDDLLCGAATAGNMLHWWFDQNKEQIENYLKKHPEKQKINFNGEQMFDVKEAIDTKDSQLDSALFEYFKDKAFPYLSTKHLGVFPDHVIDMFINGYRLSLTNHGPTPVKRGTKDPRGGIFDAVFTRGDQSKLLTSRHDFKEKTLNEISDLIKQELTEGKALGLSHTYANVRINHVINLWGADFNAEGNLEAIYVTDSDSNASIGMKKYYVGVNSAGKVAISAKEIEGDNIGAQVLGLFTLSTGQDIWNQTNLEHHHHHH: 123
